# Experimental system: rat B1R (bradykinin receptor 1) (Rattus norvegicus, UniProt P97583)
# Construct: expressed in transfected cells; host or cells: CHO K1 cells
# Sequence (P97583 whole entry): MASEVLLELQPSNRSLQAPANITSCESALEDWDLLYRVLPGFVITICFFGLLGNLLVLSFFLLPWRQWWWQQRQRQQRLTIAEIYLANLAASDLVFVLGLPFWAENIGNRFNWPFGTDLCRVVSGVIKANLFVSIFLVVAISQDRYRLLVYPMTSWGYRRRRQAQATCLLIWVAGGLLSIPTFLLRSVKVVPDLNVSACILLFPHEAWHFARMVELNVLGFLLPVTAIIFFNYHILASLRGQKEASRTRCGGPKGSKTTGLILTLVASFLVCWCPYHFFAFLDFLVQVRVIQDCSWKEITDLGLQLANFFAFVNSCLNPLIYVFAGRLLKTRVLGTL
# Protocol notes: FLIPR Ca2+ assay (Fluo-4) on CHO K1 cells stably transfected with the B1R gene of the rat (rB1R cells): % inhibition at 10 μM / IC50, agonist Des-Arg9-bradykinin
# Format: cell-based
# Experimental setup: CHO-K1, rat B1R
Quantity measured: inhibition at 10 µM (%)
Reply with just the number (in %).

{"columns": ["Compound", "inhibition at 10 µM, %"],
 "data": [
  ["O=C(NC1CCc2ccc(C(=O)N3CCC4(CCN(C(=O)Cc5ccc(Cl)cc5)CC4)C3)cc21)c1sccc1Cl (centres unmarked) [IND_CC-586]", 76],
  ["O=C(c1cccc2c1CC[C@H]2NS(=O)(=O)c1ccccc1Cl)N1CCC2(CC1)CCN(c1ccncc1)CC2 [Example H-167]", 81],
  ["CN(C(=O)c1ccccc1Cl)C1CCc2ccc(C(=O)N3CCC4(CC3)CCN(c3ccncc3)C4)cc21 (centres unmarked) [Ind_CC-112]", 104],
  ["CC(C)CC(=O)N[C@@H]1CCc2ccc(C(=O)N3CCC4(CCN(c5ccncc5)CC4)C3)cc21 [Example H-143]", 105],
  ["O=C(NC1CCc2ccc(C(=O)N3CCC4(CCN(CCCc5ccc(F)cc5)CC4)C3)cc21)c1cc(C(F)(F)F)ccc1Cl (centres unmarked) [IND_CC-692]", 99],
  ["O=C(NC1CCc2ccc(C(=O)N3CCC4(CCN(C(=O)C5CC5)CC4)C3)cc21)c1ccccc1Cl (centres unmarked) [IND_CC-573]", 100]
]}

Proceed to the following item.
Returns the measured inhibition at 10 µM for the input compound. Input: O=C(NC1CCc2ccc(C(=O)N3CCC4(CC3)CCN(c3ccncc3)CC4)cc21)c1cc(Cl)ccc1C(F)(F)F (centres unmarked) [IND_CC-302]
106

---

Overview of recorded inhibition at 10 µM for various compounds
# Experimental system: rat B1R (bradykinin receptor 1) (Rattus norvegicus)
# Construct: expressed in transfected cells; host or cells: CHO K1 cells
# Protocol notes: FLIPR Ca2+ assay (Fluo-4) on CHO K1 cells stably transfected with the B1R gene of the rat (rB1R cells): % inhibition at 10 μM / IC50, agonist Des-Arg9-bradykinin
# Type: cell-based
# Experimental setup: CHO-K1, rat B1R
Report the figure in % without appending any unit label.

Use these answered entries as a reference point.
{"columns": ["Compound", "inhibition at 10 µM [%]"],
 "data": [
  ["CN(C(=O)CC(C)(C)C)C1CCc2ccc(C(=O)N3CCC4(CC3)CCN(c3ccncc3)CC4)cc21 (stereo not drawn)", 105],
  ["CC1(C)CC(NC(=O)c2cc(Cl)ccc2C(F)(F)F)c2cc(C(=O)N3CCC4(CC3)CCN(c3ccncc3)CC4)ccc21 (stereo not drawn)", 101],
  ["O=C(NC1CCc2ccc(C(=O)N3CCC4(CC3)CCN(c3ccncc3)C4)cc21)c1cc(F)ccc1Cl (stereo not drawn)", 104],
  ["Cc1cc(OC(F)(F)F)ccc1C(=O)N[C@@H]1CCc2ccc(C(=O)N3CCC4(CCN(c5ccncc5)CC4)C3)cc21", 100],
  ["Cc1c(CN2CCC3(CC2)CCN(C(=O)c2ccc4c(c2)C(NC(=O)c2cccc(Cl)c2Cl)CC4)C3)cnn1C (stereo not drawn)", 81],
  ["O=C(c1ccc2c(c1)[C@H](NS(=O)(=O)c1ccccc1C(F)(F)F)CC2)N1CCC2(CCN(c3ccncc3)CC2)C1", 101],
  ["O=C(N[C@@H]1CCOc2c(F)cc(C(=O)N3CCC4(CC3)CCN(c3ccncc3)CC4)cc21)c1ccccc1Cl", 104],
  ["CC1(C)CC(NS(=O)(=O)c2ccc(C(F)(F)F)cc2Cl)c2cc(C(=O)N3CCC4(CC3)CCN(c3ccncc3)CC4)ccc21 (stereo not drawn)", 94],
  ["CC1(C)CC(NC(=O)c2cc(C(F)(F)F)ccc2Cl)c2cc(C(=O)N3CCC4(CC3)CCN(c3ccncc3)CC4)ccc21 (stereo not drawn)", 100],
  ["O=C(NC1CCc2ccc(C(=O)N3CCC4(CCN(Cc5ccc(F)cc5F)CC4)CC3)cc21)c1ccccc1Cl (stereo not drawn)", 102]
]}

Name the recorded inhibition at 10 µM for N#Cc1ccc(N2CCC3(CCN(C(=O)c4ccc5c(c4)[C@H](NC(=O)c4ccccc4Cl)CC5)C3)CC2)cc1 .
100

// next record O=C(NC1CCc2ccc(C(=O)N3CCC4(CCN(Cc5ccccn5)CC4)CC3)cc21)c1c(F)cccc1Cl (stereo not drawn)
99
